TGI values for the compounds below.
# Tested on: MALME-3M melanoma
# measurement-notes: NCI tumour cell line growth inhibition, 48 h
measured-property: TGI

>>> obs_value("Cc1ccc(S(=O)(=O)OCC23CCC(CC2)C2CC23)cc1 (stereo not given)")
"> 100 µM"
>>> obs_value("C=C(Br)N(CC)CC")
"> 100 µM"
>>> obs_value("C/C(=C/C(=O)Nn1c(Cc2ccccc2)n[nH]c1=O)C(=O)O")
"> 100 µM"
>>> obs_value("CCNC(=O)c1cc2c(-c3cc(C(C)(C)O)ccc3Oc3c(C)cc(F)cc3C)cn(C)c(=O)c2[nH]1")
"15.2 µM"
>>> obs_value("Nc1[nH]c(=S)nc2snnc12")
"> 100 µM"

* * *

# Test system: KM12 colon
# measurement-notes: NCI tumour cell line growth inhibition, 48 h
Entries and their measured log10(TGI) follow.
measured-property: log10(TGI) (log10 of the value in µM)

>>> obs_value("CN1c2ccccc2C(C)(C)C12C=Cc1cc(O)ccc1O2 (stereo unspecified)")
0.79
>>> obs_value("COCOc1c(C(O[Si](C)(C)C(C)(C)C)c2cnc(Sc3ccccc3)n2C)ccc(OC)c1OC (stereo unspecified)")
0.59
>>> obs_value("Cc1ccc(OC2CC(n3cnc4ncnc(Cl)c43)OC2Oc2ccc(C)cc2)cc1 (stereo unspecified)")
1.87
>>> obs_value("Cc1occc1C(=S)Nc1ccc(Cl)c(C(=O)OC(C)C2CC2)c1 (stereo unspecified)")
1.60
>>> obs_value("CCCCCCCCCCCCCC[S+](C)C")
0.47

* * *

# Tested on: HOP-62 NSCLC
# measurement-notes: NCI tumour cell line growth inhibition, 48 h
As shown below, each of these compounds has a reported TGI value.
measured-property: TGI

>>> obs_value("CCOC(=O)Cc1nc2sc(S(N)(=O)=O)nn2c1Br")
"> 100 µM"
>>> obs_value("O=[N+]([O-])c1cccc(-c2oc(C=Nc3ccccc3)c([N+](=O)[O-])c2-c2cccc([N+](=O)[O-])c2)c1")
"> 100 µM"
>>> obs_value("O=C(CCCCCCC(=O)Nc1cccnc1)NO")
"> 100 µM"
>>> obs_value("C1CCN(c2nc(=[N+]3CCCCC3)ss2)CC1")
"> 100 µM"
>>> obs_value("NCCCNCCCCN(CCCN)/[N+]([O-])=N\\O")
"> 100 µM"
>>> obs_value("Cc1c2cnccc2c(C)c2c1c1ccccc1n2CCCCCCNCc1ccccc1")
"7.14 µM"

* * *

# Tested on: A549 NSCLC
# measurement-notes: NCI tumour cell line growth inhibition, 48 h
measured-property: TGI (µM)

>>> obs_value("CC1(C)[C@@H](O[C@@H]2OC[C@@H](O[C@@H]3O[C@H](CO)[C@@H](O)[C@H](O)[C@H]3O[C@@H]3OC[C@@H](O)[C@H](O)[C@H]3O)[C@H](O)[C@H]2O[C@@H]2O[C@H](CO)[C@@H](O)[C@H](O)[C@H]2O)CC[C@]2(C)[C@H]3CC[C@]45OC[C@@]6(CC[C@](C)(C=O)C[C@H]64)[C@H](O)C[C@@]5(C)[C@]3(C)CC[C@@H]12")
1.95
>>> obs_value("Cc1ccc(OC2CC(n3cnc4ncnc(Cl)c43)OC2Oc2ccc(C)cc2)cc1 (stereo not drawn)")
82.5
>>> obs_value("O=C1/C(=C/c2cccc(Br)c2)CSC/C1=C\\c1cccc(Br)c1")
41.5
>>> obs_value("Oc1[nH]c2ccc(Cl)cc2c1/C=c1/ccc2c(c1)N=C(c1ccc(F)cc1)N=2")
3.61

* * *

# Test system: A498 renal
# measurement-notes: NCI tumour cell line growth inhibition, 48 h
Where a SMILES comes first, the peptide text is derived from it. The star is where a group is joined. ONb = O=[N+]([O-])c1ccc(CO*)cc1; Boc = CC(C)(C)OC(=O)*
measured-property: TGI

>>> obs_value("N#CCCN(CCC#N)c1ccc(/C=C2\\N=C(c3ccccc3)N(NC(N)=S)C2=O)cc1")
"> 100 µM"
>>> obs_value("N=c1c2c(-c3ccccc3)c[nH]c2ncn1N")
"> 100 µM"
>>> obs_value("COC(=O)/C=C/c1ccc2c(c1)CC1(C2)Cc2cc3c(cc2C1=O)CCC3 (stereo not given)")
"> 100 µM"
>>> obs_value("O=C(Nc1nc2ncn(CCNCc3ccccc3)c2c(=O)[nH]1)c1ccccc1")
"> 100 µM"
>>> obs_value("O=C(/C=C/c1ccc(/C=C/C(=O)c2ccc(O)cc2)cc1)c1ccc(O)cc1")
"> 100 µM"
>>> obs_value("Cc1c2cnccc2c(C)c2c1c1ccccc1n2CCCCCCNCc1ccccc1")
"3.85 µM"
>>> obs_value("O=C(Cn1ccnc1[N+](=O)[O-])c1ccc(F)cc1")
"> 100 µM"
>>> obs_value("O=C(Nc1ccc2ncnc(Nc3ccc(Oc4cccc(F)c4)c(Cl)c3)c2c1)c1ccc(CNCCO)cc1")
"23.4 µM"
>>> obs_value("Cc1occc1C(=S)Nc1ccc(Cl)c(C(=O)OC(C)C2CC2)c1 (stereo not given)")
"48.2 µM"
>>> obs_value("CC(C)CC(NC(=O)OC(C)(C)C)C(=O)NC(CCC(=O)OCc1ccc([N+](=O)[O-])cc1)C(=O)OCc1ccc([N+](=O)[O-])cc1 (stereo not drawn) (Boc-Leu-Glu(ONb)-ONb; configuration not given here)")
"> 100 µM"
>>> obs_value("O=C/C=C/c1ccco1")
"> 100 µM"
>>> obs_value("Cc1cc(C)nc(NS(=O)(=O)c2ccc(Nc3c4ccc(Cl)cc4nc4c(C(=O)Nc5ccc(S(N)(=O)=O)cc5)cccc34)cc2)n1")
"32.6 µM"
>>> obs_value("COC(=O)CCCC(=O)O")
"> 100 µM"
>>> obs_value("COc1cc(COC(=O)N(CC(=O)O)c2ccccc2)c([N+](=O)[O-])cc1OC")
"> 100 µM"
>>> obs_value("CCn1cc(C(=O)O)c(=O)c2cc3c(cc21)S(=O)(=O)CC3")
"> 100 µM"
>>> obs_value("CCN(C(=O)c1cc(F)ccc1Oc1cncnc1N1CC2(CCN(CC3CCC(NS(=O)(=O)CC)CC3)CC2)C1)C(C)C (stereo not given)")
"> 100 µM"
>>> obs_value("CC1C[C@@H]2C(=O)NC(=O)[C@@H]2c2c1c1ccccc1n2C (stereo not given in full)")
"> 100 µM"
>>> obs_value("COc1ccc(-c2nc3ccccn3c2/C=C/C(=O)c2cc(OC)c(OC)c(OC)c2)cc1")
"43.9 µM"
>>> obs_value("COc1ccc(OC)c(/C=C(/C)[N+](=O)[O-])c1")
"20.9 µM"
>>> obs_value("COc1ccc2oc(OC)c(CC=C(C)C)c(=O)c2c1C")
"> 100 µM"

* * *

The entries below are paired with their reported TGI.
# System: OVCAR-5 ovarian
# measurement-notes: NCI tumour cell line growth inhibition, 48 h
measured-property: TGI

>>> obs_value("CCC1CCc2nc3sc(C(=O)Nc4cccc(F)c4)c(N)c3cc2C1 (configuration not stated)")
"> 100 µM"
>>> obs_value("N#Cc1c(N)nc(N2CCOCC2)c(C#N)c1-c1cccnc1")
"73.5 µM"
>>> obs_value("N#C/C(=C\\NC(=S)c1ccncc1)c1nc2ccccc2s1")
"> 100 µM"
>>> obs_value("CC1(C)Cc2cc(C(=O)O)c3c(c2C1=O)COCC3")
"> 100 µM"
>>> obs_value("Nc1[nH]c(=S)nc2snnc12")
"> 100 µM"
>>> obs_value("CCSc1cc(=O)n(C)c(=O)n1C")
"> 100 µM"
>>> obs_value("COc1ccc(-c2nc3ccccn3c2/C=C/C(=O)c2cc(OC)c(OC)c(OC)c2)cc1")
"82.2 µM"
>>> obs_value("C#CC1(O)C(COP(=O)(O)OCC2OC(n3ccc(NCCCCCCCCCCCCCCCCCC)nc3=O)C(O)C2O)OC(n2ccc(N)nc2=O)C1O (configuration not stated)")
"60.5 µM"
>>> obs_value("COc1ccc(OC)c(/C=C(/C)[N+](=O)[O-])c1")
"10.7 µM"
>>> obs_value("O=C1/C(=C/c2ccccc2O)N=C(c2ccccc2)N1c1nc2ccccc2s1")
"> 100 µM"
>>> obs_value("Cn1c2ccccc2c2c(=O)[nH]c(=O)[nH]c21")
"> 100 µM"
>>> obs_value("CN(CC(=O)N(Cc1ccc(C2CCCCC2)cc1)c1ccc(C(=O)O)c(O)c1)S(=O)(=O)c1c(F)c(F)c(F)c(F)c1F")
"32.4 µM"
>>> obs_value("O=C(Nc1nc2ncn(CCNCc3ccccc3)c2c(=O)[nH]1)c1ccccc1")
"> 100 µM"
>>> obs_value("COc1ccc2oc(OC)c(CC=C(C)C)c(=O)c2c1C")
"> 100 µM"
>>> obs_value("O=CC[C@H]1CCc2ccccc2C12CCC(=O)CC2")
"> 100 µM"
>>> obs_value("NC(=O)c1cc(-c2ccc(F)cc2)cc(-c2ccncc2)c1N")
"> 25 µM"
>>> obs_value("COc1cc(Nc2ccnc(NCCCNc3ccnc4cc(Cl)ccc34)n2)cc(OC)c1")
"6 µM"
>>> obs_value("COc1cc(COC(=O)N(CC(=O)O)c2ccccc2)c([N+](=O)[O-])cc1OC")
"> 100 µM"
>>> obs_value("CN1c2ccccc2C(C)(C)C12C=Cc1cc(O)ccc1O2 (configuration not stated)")
"25.2 µM"
>>> obs_value("Cc1cc(NC[C@H](O)[C@H](O)[C@H](O)CO)c(Sc2cc(=O)[nH]c(=O)[nH]2)cc1C")
"> 62.5 µM"
>>> obs_value("CC(C)[Si](OC1=CCC[C@H]2NC(=O)[C@@H](Cc3ccccc3)[C@@]12C)(C(C)C)C(C)C")
"21.3 µM"
>>> obs_value("COc1ccc2c(c1)n([O-])c1ccccc1[n+]2=O")
"> 100 µM"
